These measurements were taken from the supplement of paper PMC10724198.

System: Saccharomyces cerevisiae
Assay: protein stability index of tFT-peptide fusion (C-terminal peptide) (PSI (0-1 scale)); higher = more stable (slower turnover)
Details: genetic background: das1 deletion; temperature: 30 C
Lab note: compare protein stability index against 0.7. Equal or greater, write 1 (yes). Smaller, write 0 (no).

>  <SEQUENCE_RECORD>
FYSVFALMVIFV [YIP1 C-terminal 12 aa]

>  <SYSTEM_NAME>
Saccharomyces cerevisiae

>  <LABEL>
0 (no)

$$$$
>  <SEQUENCE_RECORD>
YLEAFQWLSQYI [SAR1 C-terminal 12 aa]

>  <SYSTEM_NAME>
Saccharomyces cerevisiae

>  <LABEL>
1 (yes)

$$$$
>  <SEQUENCE_RECORD>
AARADRGANFRD [SPT16 C-terminal 12 aa]

>  <SYSTEM_NAME>
Saccharomyces cerevisiae

>  <LABEL>
0 (no)

$$$$

###

System: Saccharomyces cerevisiae
Assay: protein stability index of tFT-peptide fusion in wild type (PSI (0-1 scale)); higher = more stable (slower turnover)
Details: genetic background: wild type
Outcome label depends on protein stability index relative to 0.2: at/above gives YES, below gives NO.

>  <SEQUENCE_RECORD>
ARWRVGLWWGAS

>  <SYSTEM_NAME>
Saccharomyces cerevisiae

>  <LABEL>
YES

$$$$
>  <SEQUENCE_RECORD>
NDKRNHLIKLLN

>  <SYSTEM_NAME>
Saccharomyces cerevisiae

>  <LABEL>
NO

$$$$
>  <SEQUENCE_RECORD>
VRGCVGGWRLVG

>  <SYSTEM_NAME>
Saccharomyces cerevisiae

>  <LABEL>
NO

$$$$
>  <SEQUENCE_RECORD>
ARWRVGLWRGES

>  <SYSTEM_NAME>
Saccharomyces cerevisiae

>  <LABEL>
YES

$$$$
>  <SEQUENCE_RECORD>
LVVYLSCVACINE

>  <SYSTEM_NAME>
Saccharomyces cerevisiae

>  <LABEL>
NO

$$$$
>  <SEQUENCE_RECORD>
FSMRWTFRQWVN

>  <SYSTEM_NAME>
Saccharomyces cerevisiae

>  <LABEL>
NO

$$$$
>  <SEQUENCE_RECORD>
AITLPMCPALLR

>  <SYSTEM_NAME>
Saccharomyces cerevisiae

>  <LABEL>
YES

$$$$
>  <SEQUENCE_RECORD>
VRGWVGGWRLVG

>  <SYSTEM_NAME>
Saccharomyces cerevisiae

>  <LABEL>
NO

$$$$
>  <SEQUENCE_RECORD>
RVTRLDAIYFKI

>  <SYSTEM_NAME>
Saccharomyces cerevisiae

>  <LABEL>
YES

$$$$
>  <SEQUENCE_RECORD>
LVVYLSCVACFN

>  <SYSTEM_NAME>
Saccharomyces cerevisiae

>  <LABEL>
NO

$$$$
>  <SEQUENCE_RECORD>
RATRLDAIYFRI

>  <SYSTEM_NAME>
Saccharomyces cerevisiae

>  <LABEL>
YES

$$$$
>  <SEQUENCE_RECORD>
RLIQHLPVQFLN

>  <SYSTEM_NAME>
Saccharomyces cerevisiae

>  <LABEL>
NO

$$$$
>  <SEQUENCE_RECORD>
LKILKQKMNHQN

>  <SYSTEM_NAME>
Saccharomyces cerevisiae

>  <LABEL>
YES

$$$$
>  <SEQUENCE_RECORD>
AWWRVGLWRGAS

>  <SYSTEM_NAME>
Saccharomyces cerevisiae

>  <LABEL>
YES

$$$$
>  <SEQUENCE_RECORD>
ARCRVGLWRGAS

>  <SYSTEM_NAME>
Saccharomyces cerevisiae

>  <LABEL>
YES

$$$$
>  <SEQUENCE_RECORD>
ATTLPMCPLLLR

>  <SYSTEM_NAME>
Saccharomyces cerevisiae

>  <LABEL>
YES

$$$$
>  <SEQUENCE_RECORD>
RSLRVLLPYYFR

>  <SYSTEM_NAME>
Saccharomyces cerevisiae

>  <LABEL>
YES

$$$$
>  <SEQUENCE_RECORD>
LGILRQKMNHQN

>  <SYSTEM_NAME>
Saccharomyces cerevisiae

>  <LABEL>
NO

$$$$
>  <SEQUENCE_RECORD>
VRGAVGDWRLVG

>  <SYSTEM_NAME>
Saccharomyces cerevisiae

>  <LABEL>
YES

$$$$
>  <SEQUENCE_RECORD>
LVVYLSCHACIN

>  <SYSTEM_NAME>
Saccharomyces cerevisiae

>  <LABEL>
NO

$$$$
>  <SEQUENCE_RECORD>
RLIQPLPVQFLNW

>  <SYSTEM_NAME>
Saccharomyces cerevisiae

>  <LABEL>
YES

$$$$
>  <SEQUENCE_RECORD>
LKILRQKMNHQNL

>  <SYSTEM_NAME>
Saccharomyces cerevisiae

>  <LABEL>
YES

$$$$
>  <SEQUENCE_RECORD>
ARWRVGLWRGAT

>  <SYSTEM_NAME>
Saccharomyces cerevisiae

>  <LABEL>
YES

$$$$
>  <SEQUENCE_RECORD>
RSLRVLLPLCFR

>  <SYSTEM_NAME>
Saccharomyces cerevisiae

>  <LABEL>
YES

$$$$
>  <SEQUENCE_RECORD>
KKHKKGNKQKIN

>  <SYSTEM_NAME>
Saccharomyces cerevisiae

>  <LABEL>
NO

$$$$
>  <SEQUENCE_RECORD>
CLVSLPWLLFFR

>  <SYSTEM_NAME>
Saccharomyces cerevisiae

>  <LABEL>
NO

$$$$
>  <SEQUENCE_RECORD>
PDKRNHLIKSLN

>  <SYSTEM_NAME>
Saccharomyces cerevisiae

>  <LABEL>
YES

$$$$
>  <SEQUENCE_RECORD>
CLVSLPILLFFC

>  <SYSTEM_NAME>
Saccharomyces cerevisiae

>  <LABEL>
NO

$$$$
>  <SEQUENCE_RECORD>
IVTRLDAIYFRI

>  <SYSTEM_NAME>
Saccharomyces cerevisiae

>  <LABEL>
YES

$$$$
>  <SEQUENCE_RECORD>
KKHKKGQKQHIN

>  <SYSTEM_NAME>
Saccharomyces cerevisiae

>  <LABEL>
YES

$$$$
>  <SEQUENCE_RECORD>
LKILRWKMNHQN

>  <SYSTEM_NAME>
Saccharomyces cerevisiae

>  <LABEL>
YES

$$$$
>  <SEQUENCE_RECORD>
PDDRNHLIKLLN

>  <SYSTEM_NAME>
Saccharomyces cerevisiae

>  <LABEL>
NO

$$$$
>  <SEQUENCE_RECORD>
LKILRQKMNIQN

>  <SYSTEM_NAME>
Saccharomyces cerevisiae

>  <LABEL>
YES

$$$$
>  <SEQUENCE_RECORD>
RHLRVLLPLYFR

>  <SYSTEM_NAME>
Saccharomyces cerevisiae

>  <LABEL>
YES

$$$$
>  <SEQUENCE_RECORD>
RLIQPGPVQFLN

>  <SYSTEM_NAME>
Saccharomyces cerevisiae

>  <LABEL>
NO

$$$$
>  <SEQUENCE_RECORD>
FSMRWTFRYFVN

>  <SYSTEM_NAME>
Saccharomyces cerevisiae

>  <LABEL>
NO

$$$$
>  <SEQUENCE_RECORD>
FKHKKGQKQKIN

>  <SYSTEM_NAME>
Saccharomyces cerevisiae

>  <LABEL>
NO

$$$$
>  <SEQUENCE_RECORD>
CTSCGYKARTNN

>  <SYSTEM_NAME>
Saccharomyces cerevisiae

>  <LABEL>
YES

$$$$
>  <SEQUENCE_RECORD>
KWHKKGQKQKIN

>  <SYSTEM_NAME>
Saccharomyces cerevisiae

>  <LABEL>
NO

$$$$
>  <SEQUENCE_RECORD>
ARWRVGLWRGAL

>  <SYSTEM_NAME>
Saccharomyces cerevisiae

>  <LABEL>
YES

$$$$
>  <SEQUENCE_RECORD>
LVVYLSFVACIN

>  <SYSTEM_NAME>
Saccharomyces cerevisiae

>  <LABEL>
NO

$$$$
>  <SEQUENCE_RECORD>
VVGAVGGWRLVG

>  <SYSTEM_NAME>
Saccharomyces cerevisiae

>  <LABEL>
NO

$$$$
>  <SEQUENCE_RECORD>
LVVFLSCVACIN

>  <SYSTEM_NAME>
Saccharomyces cerevisiae

>  <LABEL>
NO

$$$$
>  <SEQUENCE_RECORD>
PSLAASFWRVIG

>  <SYSTEM_NAME>
Saccharomyces cerevisiae

>  <LABEL>
NO

$$$$
>  <SEQUENCE_RECORD>
AITLPMCPLLLS

>  <SYSTEM_NAME>
Saccharomyces cerevisiae

>  <LABEL>
YES

$$$$
>  <SEQUENCE_RECORD>
PDKRNHYIKLLN

>  <SYSTEM_NAME>
Saccharomyces cerevisiae

>  <LABEL>
NO

$$$$
>  <SEQUENCE_RECORD>
VRNAVGGWRLVG

>  <SYSTEM_NAME>
Saccharomyces cerevisiae

>  <LABEL>
NO

$$$$
>  <SEQUENCE_RECORD>
IDKRNHLIKLLN

>  <SYSTEM_NAME>
Saccharomyces cerevisiae

>  <LABEL>
NO

$$$$
>  <SEQUENCE_RECORD>
PSLAASFWMVVG

>  <SYSTEM_NAME>
Saccharomyces cerevisiae

>  <LABEL>
YES

$$$$
>  <SEQUENCE_RECORD>
RVDRLDAIYFRI

>  <SYSTEM_NAME>
Saccharomyces cerevisiae

>  <LABEL>
YES

$$$$
>  <SEQUENCE_RECORD>
CLVSLPILLFNR

>  <SYSTEM_NAME>
Saccharomyces cerevisiae

>  <LABEL>
YES

$$$$
>  <SEQUENCE_RECORD>
FSMRWTTRYWVN

>  <SYSTEM_NAME>
Saccharomyces cerevisiae

>  <LABEL>
NO

$$$$
>  <SEQUENCE_RECORD>
RVTRLDAIYFRIA

>  <SYSTEM_NAME>
Saccharomyces cerevisiae

>  <LABEL>
NO

$$$$
>  <SEQUENCE_RECORD>
LKILRQKMNHQNN

>  <SYSTEM_NAME>
Saccharomyces cerevisiae

>  <LABEL>
YES

$$$$
>  <SEQUENCE_RECORD>
FSMRYTFRYWVN

>  <SYSTEM_NAME>
Saccharomyces cerevisiae

>  <LABEL>
NO

$$$$
>  <SEQUENCE_RECORD>
LKILRQKMNHDN

>  <SYSTEM_NAME>
Saccharomyces cerevisiae

>  <LABEL>
YES

$$$$
>  <SEQUENCE_RECORD>
AITLPMHPLLLR

>  <SYSTEM_NAME>
Saccharomyces cerevisiae

>  <LABEL>
YES

$$$$
>  <SEQUENCE_RECORD>
ARWRVGLWNGAS

>  <SYSTEM_NAME>
Saccharomyces cerevisiae

>  <LABEL>
YES

$$$$
>  <SEQUENCE_RECORD>
PDKRNKLIKLLN

>  <SYSTEM_NAME>
Saccharomyces cerevisiae

>  <LABEL>
NO

$$$$
>  <SEQUENCE_RECORD>
RSIRVLLPLYFR

>  <SYSTEM_NAME>
Saccharomyces cerevisiae

>  <LABEL>
YES

$$$$
>  <SEQUENCE_RECORD>
CTSCGYPFRTNN

>  <SYSTEM_NAME>
Saccharomyces cerevisiae

>  <LABEL>
YES

$$$$
>  <SEQUENCE_RECORD>
GSMRWTFRYWVN

>  <SYSTEM_NAME>
Saccharomyces cerevisiae

>  <LABEL>
NO

$$$$
>  <SEQUENCE_RECORD>
KKHKKGQCQKIN

>  <SYSTEM_NAME>
Saccharomyces cerevisiae

>  <LABEL>
NO

$$$$
>  <SEQUENCE_RECORD>
RSLRVLLPLMFR

>  <SYSTEM_NAME>
Saccharomyces cerevisiae

>  <LABEL>
YES

$$$$
>  <SEQUENCE_RECORD>
CLVSLPILLFVR

>  <SYSTEM_NAME>
Saccharomyces cerevisiae

>  <LABEL>
NO

$$$$
>  <SEQUENCE_RECORD>
VRGAVGGWRIVG

>  <SYSTEM_NAME>
Saccharomyces cerevisiae

>  <LABEL>
YES

$$$$
>  <SEQUENCE_RECORD>
RLIQPQPVQFLN

>  <SYSTEM_NAME>
Saccharomyces cerevisiae

>  <LABEL>
NO

$$$$
>  <SEQUENCE_RECORD>
LVVYLSCVACYN

>  <SYSTEM_NAME>
Saccharomyces cerevisiae

>  <LABEL>
NO

$$$$
>  <SEQUENCE_RECORD>
CTSCGYIFRTNN

>  <SYSTEM_NAME>
Saccharomyces cerevisiae

>  <LABEL>
YES

$$$$
>  <SEQUENCE_RECORD>
RSLRVELPLYFR

>  <SYSTEM_NAME>
Saccharomyces cerevisiae

>  <LABEL>
NO

$$$$
>  <SEQUENCE_RECORD>
ARWRNGLWRGAS

>  <SYSTEM_NAME>
Saccharomyces cerevisiae

>  <LABEL>
YES

$$$$
>  <SEQUENCE_RECORD>
RSLRVLIPLYFR

>  <SYSTEM_NAME>
Saccharomyces cerevisiae

>  <LABEL>
YES

$$$$
>  <SEQUENCE_RECORD>
CLVVLPILLFFR

>  <SYSTEM_NAME>
Saccharomyces cerevisiae

>  <LABEL>
NO

$$$$
>  <SEQUENCE_RECORD>
VLGAVGGWRLVG

>  <SYSTEM_NAME>
Saccharomyces cerevisiae

>  <LABEL>
NO

$$$$
>  <SEQUENCE_RECORD>
CLVSLPIKLFFR

>  <SYSTEM_NAME>
Saccharomyces cerevisiae

>  <LABEL>
NO

$$$$
>  <SEQUENCE_RECORD>
PDKRFHLIKLLN

>  <SYSTEM_NAME>
Saccharomyces cerevisiae

>  <LABEL>
NO

$$$$
>  <SEQUENCE_RECORD>
RLIQPLPVQFLC

>  <SYSTEM_NAME>
Saccharomyces cerevisiae

>  <LABEL>
NO

$$$$
>  <SEQUENCE_RECORD>
CLVSKPILLFFR

>  <SYSTEM_NAME>
Saccharomyces cerevisiae

>  <LABEL>
NO

$$$$
>  <SEQUENCE_RECORD>
RQIQPLPVQFLN

>  <SYSTEM_NAME>
Saccharomyces cerevisiae

>  <LABEL>
NO

$$$$
>  <SEQUENCE_RECORD>
LKILRQKMNHEN

>  <SYSTEM_NAME>
Saccharomyces cerevisiae

>  <LABEL>
YES

$$$$
>  <SEQUENCE_RECORD>
GLYMCSVGCWHR

>  <SYSTEM_NAME>
Saccharomyces cerevisiae

>  <LABEL>
YES

$$$$
